All figures here come from ChEMBL document CHEMBL4346726.

experimental protocol: Fraction absorbed in rat at 3 mg/kg, po
Assay type: ADME, organism-based
settings: in vivo, read-out: Fabs
endpoint: Fa (%)
Your answer is read as %, so omit the unit and give the number.

input: Query Fa for CC[C@@H]1[C@@H]2CN(C(=O)[C@H](C(C)(C)C)NC(=O)O[C@@H]3C[C@H]3CCCCC(F)(F)c3nc4ccc(OC)cc4nc3O2)[C@@H]1C(=O)N[C@]1(C(=O)NS(=O)(=O)C2(C)CC2)C[C@H]1C(F)F
output: 100

----------
experimental protocol: MRT in rat
Assay type: ADME
settings: in vivo
endpoint: MRT (h)
Your answer is read as h, so omit the unit and give the number.

input: Query MRT for CC[C@@H]1[C@@H]2CN(C(=O)[C@H](C(C)(C)C)NC(=O)O[C@@H]3C[C@H]3CCCCCc3nc4ccc(OC)cc4nc3O2)[C@@H]1C(=O)N[C@]1(C(=O)NS(=O)(=O)C2(C)CC2)C[C@H]1C(F)F
output: 1.4

----------
experimental protocol: Oral bioavailability in cynomolgus monkey at 1 mg/kg
Assay type: ADME, organism-based, Macaca fascicularis
settings: in vivo
endpoint: bioavailability (%)
Your answer is read as %, so omit the unit and give the number.

input: Query bioavailability for CC[C@@H]1[C@@H]2CN(C(=O)[C@H](C(C)(C)C)NC(=O)O[C@@H]3C[C@H]3CCCCC(F)(F)c3nc4ccc(OC)cc4nc3O2)[C@@H]1C(=O)N[C@]1(C(=O)NS(=O)(=O)C2(C)CC2)C[C@H]1C(F)F
output: 10

----------
experimental protocol: Clearance in rat
Type: ADME
settings: in vivo
endpoint: clearance (L/h/kg)
Your answer is read as L/h/kg, so omit the unit and give the number.

[[record]]
given_smiles = "C=C[C@@H]1C[C@]1(NC(=O)[C@@H]1[C@H](CC)[C@@H]2CN1C(=O)[C@H](C(C)(C)C)NC(=O)O[C@@H]1C[C@H]1CCCCCc1nc3ccc(OC)cc3nc1O2)C(=O)NS(=O)(=O)C1CC1"
endpoint = "clearance"
reported = 0.88

[[record]]
given_smiles = "CC[C@@H]1[C@@H]2CN(C(=O)[C@H](C(C)(C)C)NC(=O)O[C@@H]3C[C@H]3CCCCCc3nc4ccc(OC)cc4nc3O2)[C@@H]1C(=O)N[C@]1(C(=O)NS(=O)(=O)C2CC2)C[C@H]1C(F)F"
endpoint = "clearance"
reported = 2

[[record]]
given_smiles = "CC[C@@H]1[C@@H]2CN(C(=O)[C@H](C(C)(C)C)NC(=O)O[C@@H]3C[C@H]3CCCCCc3nc4ccc(OC)cc4nc3O2)[C@@H]1C(=O)N[C@]1(C(=O)NS(=O)(=O)C2CC2)C[C@H]1CC"
endpoint = "clearance"
reported = 0.67

[[record]]
given_smiles = "COc1ccc2nc3c(nc2c1)O[C@H]1CN(C(=O)[C@H](C(C)(C)C)NC(=O)O[C@@H]2C[C@H]2CCCCC3)[C@H](C(=O)N[C@]2(C(=O)NS(=O)(=O)C3(C)CC3)C[C@H]2C(F)F)[C@@H]1C"
endpoint = "clearance"
reported = 2.1


Next compound, clearance to be filled in.
input: Query clearance for CC[C@@H]1[C@@H]2CN(C(=O)[C@H](C(C)(C)C)NC(=O)O[C@@H]3C[C@H]3CCCCCc3nc4ccc(OC)cc4nc3O2)[C@@H]1C(=O)N[C@]1(C(=O)NS(=O)(=O)C2(C)CC2)C[C@H]1C(F)F
output: 1.3
